Recorded values, source patent US11174268B2.

Biological target: NaV1.5 (Homo sapiens (Human))
Assay: Sodium Influx Assay (Flux), NaV1.5
Conditions: read-out: Flux NaV1.5 IC50; Trex HEK293 cells, ANG2 dye, inactivated state
pIC50: −log10 of the molar value. Counter-ions that a name gives are not always drawn.
// Not satisfied strictly below 5 in pIC50; Satisfied otherwise

See these solved cases before continuing.
>  <compound>
O=S(=O)(Nc1cscn1)c1cc(Cl)c(NCc2c(F)cccc2CN2CCOCC2)cc1F

>  <class.assignment>
Not satisfied

$$$$
>  <compound>
Cc1cc(NCc2c(F)cccc2CN2CC(C)(C)C2)c(F)c(F)c1S(=O)(=O)Nc1cscn1 [Example 314, 2,2,2-trifluoroacetate]

>  <class.assignment>
Not satisfied

$$$$
>  <compound>
O=S(=O)(Nc1nccs1)c1cc(Cl)c(OCc2ccccc2CN2CCC2)cc1F

>  <class.assignment>
Not satisfied

$$$$
>  <compound>
Cc1c(NCc2c(F)cccc2CN2CCC2)ccc(S(=O)(=O)Nc2ccon2)c1F [Example 315, 2,2,2-trifluoroacetate]

>  <class.assignment>
Not satisfied

$$$$
>  <compound>
C[C@H](Oc1ccc(S(=O)(=O)Nc2ncns2)cc1Cl)c1ccccc1

>  <class.assignment>
Not satisfied

$$$$

--- query ---
Answer whether pIC50 of O=S(=O)(Nc1cscn1)c1c(F)cc(NCc2c(F)cccc2CN2CCC3(CCO3)C2)cc1F (stereo not shown) [Example 155, formate] is greater than or equal to 5. Not satisfied

----------
Biological target: NaV1.5 (Homo sapiens (Human), UniProt Q14524)
Sequence (Q14524 other isoform, or with tags, fused parts or gaps): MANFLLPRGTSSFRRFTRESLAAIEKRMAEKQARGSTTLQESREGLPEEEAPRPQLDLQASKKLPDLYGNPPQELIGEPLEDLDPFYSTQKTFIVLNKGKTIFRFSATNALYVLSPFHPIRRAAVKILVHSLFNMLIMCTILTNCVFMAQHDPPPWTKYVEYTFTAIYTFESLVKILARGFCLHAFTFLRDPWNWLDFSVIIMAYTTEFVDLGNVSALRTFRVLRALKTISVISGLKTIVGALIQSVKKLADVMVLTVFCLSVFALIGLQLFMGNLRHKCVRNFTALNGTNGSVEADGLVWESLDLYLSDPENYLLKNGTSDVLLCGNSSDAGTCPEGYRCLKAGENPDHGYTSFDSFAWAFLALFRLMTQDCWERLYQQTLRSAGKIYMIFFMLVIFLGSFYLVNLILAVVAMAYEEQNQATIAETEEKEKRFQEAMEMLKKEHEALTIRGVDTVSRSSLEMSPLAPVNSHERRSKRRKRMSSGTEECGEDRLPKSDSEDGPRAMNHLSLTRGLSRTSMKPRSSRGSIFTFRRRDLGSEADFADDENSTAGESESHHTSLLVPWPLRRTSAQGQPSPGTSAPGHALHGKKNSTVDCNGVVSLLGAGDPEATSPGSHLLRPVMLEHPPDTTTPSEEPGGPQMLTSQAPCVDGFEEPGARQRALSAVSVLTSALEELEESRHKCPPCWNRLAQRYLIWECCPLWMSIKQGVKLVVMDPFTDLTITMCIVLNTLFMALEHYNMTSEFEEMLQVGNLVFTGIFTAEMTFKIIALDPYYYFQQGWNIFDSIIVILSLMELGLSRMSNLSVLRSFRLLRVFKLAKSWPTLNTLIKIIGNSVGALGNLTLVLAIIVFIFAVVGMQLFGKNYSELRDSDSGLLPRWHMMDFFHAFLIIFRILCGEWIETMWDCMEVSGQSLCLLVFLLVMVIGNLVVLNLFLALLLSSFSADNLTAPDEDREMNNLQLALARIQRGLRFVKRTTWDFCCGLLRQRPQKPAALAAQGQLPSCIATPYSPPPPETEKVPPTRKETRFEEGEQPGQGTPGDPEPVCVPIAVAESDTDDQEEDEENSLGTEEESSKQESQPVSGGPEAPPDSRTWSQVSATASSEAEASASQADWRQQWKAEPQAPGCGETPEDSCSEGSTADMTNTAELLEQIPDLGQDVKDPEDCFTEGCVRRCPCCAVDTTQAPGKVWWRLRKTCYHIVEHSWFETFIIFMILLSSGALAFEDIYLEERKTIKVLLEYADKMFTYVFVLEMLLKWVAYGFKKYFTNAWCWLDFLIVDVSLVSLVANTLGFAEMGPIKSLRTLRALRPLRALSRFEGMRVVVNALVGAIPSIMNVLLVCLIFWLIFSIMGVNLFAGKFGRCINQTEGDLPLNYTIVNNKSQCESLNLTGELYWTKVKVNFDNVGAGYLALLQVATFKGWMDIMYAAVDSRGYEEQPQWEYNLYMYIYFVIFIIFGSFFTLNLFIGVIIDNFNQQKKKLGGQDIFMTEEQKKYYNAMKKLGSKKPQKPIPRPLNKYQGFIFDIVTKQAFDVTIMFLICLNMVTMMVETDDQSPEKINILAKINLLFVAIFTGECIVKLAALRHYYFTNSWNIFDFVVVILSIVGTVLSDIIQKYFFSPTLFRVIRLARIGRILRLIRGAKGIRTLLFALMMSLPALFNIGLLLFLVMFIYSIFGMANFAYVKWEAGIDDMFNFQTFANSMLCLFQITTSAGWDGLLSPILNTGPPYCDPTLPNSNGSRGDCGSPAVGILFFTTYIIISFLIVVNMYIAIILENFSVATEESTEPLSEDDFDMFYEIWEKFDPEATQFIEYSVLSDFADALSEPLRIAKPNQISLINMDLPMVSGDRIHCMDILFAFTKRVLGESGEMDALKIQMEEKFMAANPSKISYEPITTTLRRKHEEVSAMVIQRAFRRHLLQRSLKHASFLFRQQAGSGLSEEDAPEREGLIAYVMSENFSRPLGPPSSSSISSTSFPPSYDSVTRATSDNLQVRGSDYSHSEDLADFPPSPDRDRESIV
Assay: Sodium Influx Assay (Flux), NaV1.5
Settings: read-out: Flux NaV1.5 IC50; Trex HEK293 cells, ANG2 dye, inactivated state
measurement.kind: IC50 (µM)
Numbers only, in µM.

Some entries whose results are on file:
>  <molecule>
C[C@H](Nc1cc(F)c(S(=O)(=O)Nc2ncc(Cl)s2)cc1Cl)c1ccccc1F [Example 267]

>  <system.name>
NaV1.5 (Homo sapiens (Human), UniProt Q14524)

>  <IC50 (µM)>
6.96

$$$$
>  <molecule>
CCC(Nc1cc(F)c(S(=O)(=O)Nc2nccs2)cc1Cl)c1ccncc1 (centres unmarked) [Example 60]

>  <system.name>
NaV1.5 (Homo sapiens (Human), UniProt Q14524)

>  <IC50 (µM)>
30

$$$$
>  <molecule>
O=S(=O)(Nc1cccc(F)n1)c1cc(Cl)c(NCc2ccccc2CN2CCC2)cc1F [Example 200]

>  <system.name>
NaV1.5 (Homo sapiens (Human), UniProt Q14524)

>  <IC50 (µM)>
15.4

$$$$
>  <molecule>
CN(C)CC(Nc1cc(F)c(S(=O)(=O)Nc2nccs2)cc1Cl)c1ccccc1 (centres unmarked) [Example 63, 2,2,2-trifluoroacetate]

>  <system.name>
NaV1.5 (Homo sapiens (Human), UniProt Q14524)

>  <IC50 (µM)>
30

$$$$
>  <molecule>
C[C@H](Oc1cc(F)c(S(=O)(=O)Nc2nccs2)cc1Cl)c1ccccc1Cl [Example 117]

>  <system.name>
NaV1.5 (Homo sapiens (Human), UniProt Q14524)

>  <IC50 (µM)>
6.22

$$$$

For each entry beneath this line, provide reported IC50.
1. C[C@H](Nc1ccc(S(=O)(=O)Nc2cscn2)c(F)c1Cl)c1c(F)cccc1Cl [Example 148]
2. N#Cc1ccccc1CNc1cc(F)c(S(=O)(=O)Nc2nccs2)cc1Cl [Example 17]
3. C[C@H](Nc1cc(F)c(S(=O)(=O)Nc2cscn2)cc1Cl)c1cc(C#N)ccc1F [Example 229]

4.84
8.46
30
